These measurements were taken from patent US9163256B2.

Measured EC50 of individual entries
tested on: CfEcR-DEF mutant V96S (Choristoneura fumiferana, UniProt O77255, V379S)
Sequence (O77255 entry or part of it V379S): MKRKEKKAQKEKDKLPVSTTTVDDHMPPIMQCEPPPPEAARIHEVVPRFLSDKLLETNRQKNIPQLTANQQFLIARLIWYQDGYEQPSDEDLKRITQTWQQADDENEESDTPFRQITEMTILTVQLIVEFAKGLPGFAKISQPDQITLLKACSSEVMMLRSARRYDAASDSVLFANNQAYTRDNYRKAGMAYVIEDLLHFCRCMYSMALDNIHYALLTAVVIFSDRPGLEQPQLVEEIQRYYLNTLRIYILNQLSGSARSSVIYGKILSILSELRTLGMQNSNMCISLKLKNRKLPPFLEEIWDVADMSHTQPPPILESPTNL
Sequence (P28702 299-449, further chain): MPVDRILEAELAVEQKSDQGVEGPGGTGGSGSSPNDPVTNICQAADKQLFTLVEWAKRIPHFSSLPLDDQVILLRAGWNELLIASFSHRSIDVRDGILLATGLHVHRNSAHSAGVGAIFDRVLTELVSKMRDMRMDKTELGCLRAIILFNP
measurement protocol: cell-based
condition context: mutant V96S; read-out: EC50
measured quantity: EC50

{"columns": ["compound", "result"],
 "data": [
  ["CC(C)(O)CC[C@@H](O)[C@](C)(O)[C@H]1CC[C@@]2(O)C3=CC(=O)[C@@H]4C[C@@H](O)[C@@H](O)C[C@]4(C)[C@H]3CC[C@]12C [20E, 20-hydroxyecdysone]", "> 33000 nM"],
  ["CC(C)CC[C@@H](O)[C@](C)(O)[C@H]1CC[C@@]2(O)C3=CC(=O)[C@@H]4C[C@@H](O)[C@@H](O)C[C@]4(C)[C@H]3CC[C@]12C", "~2000 nM"]
]}
